# assay overview: Half life in dog at 2 mg/kg, iv
# Format: ADME, organism-based, Canis lupus familiaris
# condition info: in vivo
assay readout: half-life (min)
Kindly answer with a numeric value in min, unit omitted.

stdin: I have this compound here, COC(=O)/C=C/C(=O)NNC(=O)CCc1ccccc1C(=O)N[C@H](C)c1cccc2ccccc12 , and I need its recorded half-life.
stdout: 6

stdin: I have this compound here, CCOC(=O)/C=C/C(=O)NNC(=O)CCc1ccccc1C(=O)N[C@H](C)c1cccc(-c2cccs2)c1 , and I need its recorded half-life.
stdout: 6.48

* * *

# target entity: Replicase polyprotein 1ab (Severe acute respiratory syndrome coronavirus 2, UniProt P0DTD1)
# assay overview: Inhibition of SARS-CoV-2 papain-like protease using Z-Arg-Leu-Arg-Gly-Gly-AMC as substrate incubated for 15 mins
Kindly state pIC50 for each of the entries shown.
Expect pIC50 as a plain number equal to -log10 of the molar concentration.

stdin: I have this molecule here, COC(=O)/C=C/C(=O)NNC(=O)CCc1ccccc1C(=O)N[C@H](C)c1cccc(-c2cc3ccccc3o2)c1 , and I need its recorded pIC50.
stdout: 6.60

stdin: I have this molecule here, C[C@@H](NC(=O)c1ccccc1CCC(=O)NNC(=O)/C=C/C(=O)OC1CCC1)c1cccc2ccccc12 , and I need its recorded pIC50.
stdout: 6.48

stdin: I have this molecule here, C[C@@H](NC(=O)c1ccccc1CCC(=O)NNC(=O)/C=C/C(=O)OC1CCCCC1)c1cccc2ccccc12 , and I need its recorded pIC50.
stdout: 6.02

stdin: I have this molecule here, C[C@@H](NC(=O)c1ccccc1CCC(=O)NNC(=O)/C=C/C(=O)OCc1nccs1)c1cccc2ccccc12 , and I need its recorded pIC50.
stdout: 6.47

stdin: I have this molecule here, C[C@@H](NC(=O)c1ccccc1CCC(=O)NNC(=O)/C=C/C(=O)OCc1ccccc1)c1cccc2ccccc12 , and I need its recorded pIC50.
stdout: 6.28
